assay: NOVARTIS: Cytotoxicity against human hepatocellular carcinoma cell line (Huh7); assay type: toxicity, cell-based, Huh-7; settings: Huh7 cells (hepatocellular carcinoma cell line)
measured_attribute: CC50

Some molecules with known CC50 results, for comparison:
Cc1nc(C(C)N(C)Cc2c(C(=O)N3CCCCCCC3)nc3sccn23)c(C)s1 (stereo not given) :: > 100 µM
CC(C)(C)NCC(O)Cn1c2ccc(Br)cc2c2cc(Br)ccc21 (stereo not given) :: 20.7 µM
O=C1N=C(N2CCOCC2)S/C1=C/c1cccc2ccccc12 :: > 10 µM
O=S(=O)(c1ccc(Br)s1)N1CCN(c2ccccc2)CC1 :: > 10 µM
COc1ccc(NC2=C(c3ccc(C(F)(F)F)cc3)C(=O)c3ccccc32)cc1 :: > 100 µM

Shift focus to the following entry.
Prompt: I have this molecule here, `CCCN(CC(=O)Nc1cc(C(C)(C)C)nn1-c1cccc(C)c1C)C(=O)C1CCCCC1` , and I need its recorded CC50.
Response: 9.45 µM

###

assay: NOVARTIS: Cytotoxicity against human hepatocellular carcinoma cell line (Huh7); type: toxicity, cell-based, Huh-7; details: Huh7 cells (hepatocellular carcinoma cell line)
measured_attribute: CC50

CCOC(=O)c1[nH]c(C)c(Cc2ccc(OCC)cc2)c1C :: > 100 µM
COc1ccc(C2CC(=O)C3=C(C2)NC(C)=C(C(=O)OC(C)C)C3c2cccc(Cl)c2Cl)cc1OC (configuration not stated) :: > 87.3 µM
Cc1ccc(O)c(C(=O)c2c[nH]c(-c3nc4ccccc4[nH]3)c2)c1 :: 5.65 µM
CCNC(=O)NS(=O)(=O)c1cnccc1Sc1cccc(C)c1 :: > 10 µM

Prompt: Name the recorded CC50 for CCC1=NN2C(=N)/C(=C/c3cn(CCOc4ccccc4C(C)CC)c4ccccc34)C(=O)N=C2S1 (configuration not stated) .
Response: > 10 µM

Prompt: Which measured CC50 value corresponds to `CCOc1ccc2nc(C)cc(Nc3ccc(N(C)C)cc3)c2c1` ?
Response: 16.6 µM

Prompt: Query: CC50; subject: `CCc1ccc(CSc2nc3cc(OC)c(OC)cc3c(=N)n2CCc2ccccc2)cc1`
Response: 38.9 µM

###

Reported EC50 values follow for various compounds
system: Plasmodium falciparum; test: NOVARTIS: Inhibition of Plasmodium falciparum W2 (drug-resistant) proliferation in erythrocyte-based infection assay; format: functional, organism-based; settings: Plasmodium falciparum, W2; read-out: EC50
Write the value in nM as a bare number.

Recorded results for 2 compounds are shown here.
O[C@@H]1[C@H]2c3cc4c(cc3CN3CCC(=C[C@@H]1O)[C@H]23)OCO4 :: 361
CCCC(=O)NC(C(=O)N1CCN(C(c2ccccc2)c2ccccc2)CC1)C(C)C (centres undefined) :: 10.9

Prompt: # query: EC50 of entry OC(CN1CCN(CC(O)Cn2c3ccccc3c3cc(Br)ccc32)CC1)Cn1c2ccccc2c2ccccc21 (centres undefined)
Response: 576

###

tested on: Plasmodium falciparum; assay: NOVARTIS: Inhibition of Plasmodium falciparum 3D7 (drug-susceptible) proliferation in erythrocyte-based infection assay; assay type: functional, organism-based; details: Plasmodium falciparum, 3D7
measured_attribute: EC50 (nM)
// units = nM; emit number, no label

Prompt: Item under review: `CCN(CC)c1ccc(C=Cc2cc[n+](Cc3ccc(F)cc3)cc2)cc1` . Reported EC50?
Response: 241

Prompt: Item under review: O=C(CC1OC(=O)c2ccccc21)c1ccc(Cl)cc1 (stereo not given) . Reported EC50?
Response: 717

Prompt: Item under review: `Clc1ccc(-c2c[n+](Cc3ccc(Cl)c(Cl)c3)c3n2CCC3)cc1` . Reported EC50?
Response: 446

Prompt: Query (compound): OC(CNCC1CCCO1)Cn1c2ccc(Br)cc2c2cc(Br)ccc21 (stereo not given) ; field requested: EC50
Response: 261

Prompt: Fill in the blank: the reported EC50 of CCOC(=O)C1=C(C)N=c2sc(=Cc3cc(Br)ccc3O)c(=O)n2C1c1ccccc1 (stereo not given) is ____.
Response: 5530

Prompt: Field request: EC50 | item: `COc1ccc(C=C2N=C(c3ccc(Cl)cc3)N(c3cc(Cl)ccc3C)C2=O)cc1OC`
Response: 3480

Prompt: Form field: reported EC50 of CCC1CCCCN1C(=O)C1CC(=O)N(c2ccc(OC)cc2)C1c1ccc(OC)cc1 (stereo not given)
Response: 387
